Task for the reader: assign each of the following molecules its reported GI50.
tested on: UO-31; test: NCI tumour cell line growth inhibition, 48 h
Calls of active or inactive are those of the source. No stated cut-off is given here; in the data, active = GI50 up to about 1.1 µM and inactive = higher. Non-standard residues stand in square brackets, D forms with d. Residues, ends and D or L forms follow the SMILES beside them. ξ: configuration not given here. *: point of attachment. dThr(3ξ) = CC(O)[C@@H](N)C(=O)O; dNMeL = CN[C@H](CC(C)C)C(=O)O; OBn = c1ccc(CO*)cc1; ξLac = CC(O)C(=O)O

Previously resolved entries follow.
CC(=O)OC(C)[C@@H](NC(=O)[C@@H](CC(C)C)N(C)C(=O)[C@@H]1CCCN1C(=O)C(C)O)C(=O)OCc1ccccc1 (some centres undefined) (H-[ξLac]P[dNMeL][dThr(3ξ)](Ac)-OBn) | > 100 µM (inactive)
COc1ccc(/C=N/n2cnc3c(sc(=S)n3-c3ccccc3)c2=O)cc1 | 40.4 µM (inactive)
COC(=O)c1ccccc1CC1Cc2ccc3c(c2C1=O)CCCC3 (centres undefined) | 52.8 µM (inactive)
Cn1cc2ccccc2c1-c1nc(F)nc(OCC(=O)[C@H]2CCC3[C@@H]4CCC5=CC(=O)CC[C@]5(C)C4[C@@H](O)C[C@@]32C)n1 (some centres undefined) | 19.6 µM (inactive)
OC(Cc1cnnc2ccccc12)C(Cl)(Cl)Cl (centres undefined) | > 10 µM (inactive)
COC(=O)[C@]12CCC(C)(C)C[C@H]1C1=CC[C@@H]3[C@@]4(C)CC[C@H](OC5OC(CO)C(O)C(O)C5OC5OC(CO)C(O)C(O)C5O)C(C)(C)[C@@H]4CC[C@@]3(C)[C@]1(C)CC2 (some centres undefined) | 3.4 µM (inactive)

Give GI50 for each of the items listed below.
1. CCOC(=O)C1(C)CCC(C(C(=O)O)C(=O)O)CC1=O (centres undefined)
2. OC1(C(Sc2cc(C(F)(F)F)cc(C(F)(F)F)c2)Sc2cc(C(F)(F)F)cc(C(F)(F)F)c2)C=CCCC1 (centres undefined)
3. CCOC(=O)c1nc2cc(F)cc(F)c2[nH]c1=O

Result:
["> 100 µM (inactive)", "1.38 µM (inactive)", "72.8 µM (inactive)"]
